biological target: feline FcRn complex (FcRn-α subunit and β-microglobulin) (feline); test: SPR (Biacore), FcRn on SA chip, pH 7.4
Can you tell me Kd for the items I'm about to list?
Quick note: number first, unit second.

Query string: Query: Kd; subject: feline IgG1a mutant ID No. 373: S252Y, S434R, Q311R (antibody, part only; not given: Variable domains, not shown: another chain or arm of the molecule) constant: ASTTAPSVFPLAPSCGTTSGATVALACLVLGYFPEPVTVSWNSGALTSGVHTFPAVLQASGLYSLSSMVTVPSSRWLSDTFTCNVAHPPSNTKVDKTVRKTDHPPGPKPCDCPKCPPPEMLGGPSIFIFPPKPKDTLYISRTPEVTCLVVDLGPDDSDVQITWFVDNTQVYTAKTSPREEQFNSTYRVVSVLPILHRDWLKGKEFKCKVNSKSLPSPIERTISKAKGQPHEPQVYVLPPAQEELSRNKVSVTCLIKSFHPPDIAVEWEITGQPEPENNYRTTPPQLDSDGTYFVYSKLSVDRSHWQRGNTYTCSVSHEALHRHHTQKSLTQSPGK
Result string: 12.9 nM

Query string: Query: Kd; subject: feline IgG1a mutant ID No. 247: S252Y, S428M, S434Y (antibody, part only; not given: Variable domains, not shown: another chain or arm of the molecule) constant: ASTTAPSVFPLAPSCGTTSGATVALACLVLGYFPEPVTVSWNSGALTSGVHTFPAVLQASGLYSLSSMVTVPSSRWLSDTFTCNVAHPPSNTKVDKTVRKTDHPPGPKPCDCPKCPPPEMLGGPSIFIFPPKPKDTLYISRTPEVTCLVVDLGPDDSDVQITWFVDNTQVYTAKTSPREEQFNSTYRVVSVLPILHQDWLKGKEFKCKVNSKSLPSPIERTISKAKGQPHEPQVYVLPPAQEELSRNKVSVTCLIKSFHPPDIAVEWEITGQPEPENNYRTTPPQLDSDGTYFVYSKLSVDRSHWQRGNTYTCSVMHEALHYHHTQKSLTQSPGK
Result string: 7.65 nM

Query string: Query: Kd; subject: feline IgG1a mutant ID No. 266: Q311W, L314K, S434Y (antibody, part only; not given: Variable domains, not shown: another chain or arm of the molecule) constant: ASTTAPSVFPLAPSCGTTSGATVALACLVLGYFPEPVTVSWNSGALTSGVHTFPAVLQASGLYSLSSMVTVPSSRWLSDTFTCNVAHPPSNTKVDKTVRKTDHPPGPKPCDCPKCPPPEMLGGPSIFIFPPKPKDTLSISRTPEVTCLVVDLGPDDSDVQITWFVDNTQVYTAKTSPREEQFNSTYRVVSVLPILHWDWKKGKEFKCKVNSKSLPSPIERTISKAKGQPHEPQVYVLPPAQEELSRNKVSVTCLIKSFHPPDIAVEWEITGQPEPENNYRTTPPQLDSDGTYFVYSKLSVDRSHWQRGNTYTCSVSHEALHYHHTQKSLTQSPGK
Result string: 388 nM
